target system: PDE4
protocol text: Selectivity: inhibition of PDE4, radioenzymatic phosphodiesterase assay
condition summary: vascular smooth muscle; cells without % sign
readout type: pIC50
Value format note: pIC50 is -log10 of concentration (mol/L); just state the number.

In: GET /values?readout=pIC50&item= CCN1C(=O)C(Cc2ccc(Cl)c(Cl)c2)N=C(c2ccccc2)c2cc(OC)c(OC)cc21 (centres unmarked)
Out: 5.19

In: Entry COc1cc2c(cc1OC)N(C)C(=O)CN=C2c1cccc(-c2ccc(Cl)cc2)c1 please
Out: 5.55

----------
Answer each item with its documented PDE4 percentage inhibition at 10 μM.
Test system: PDE4
protocol text: Selectivity: inhibition of PDE4, radioenzymatic phosphodiesterase assay
Type: biochemical, bovine
condition summary: 10 μM test compound; vascular smooth muscle

In: For the compound shown here, COc1cc2c(cc1OC)N(C)C(=O)CN=C2c1cccc(C(F)(F)F)c1 , give the reported PDE4 percentage inhibition at 10 μM.
Out: 19%

In: Check COc1cc2c(cc1OC)N(C)C(=O)CN=C2c1cccc(-c2ccc(C#N)cc2)c1 too.
Out: 37.3%

In: Further, for COc1cc2c(cc1OC)N(C)C(=O)CN=C2c1cccc(C#CCCCC#N)c1 ?
Out: 55.7%

In: Another compound: COc1cc2c(cc1OC)N(C)C(=O)CN=C2c1cccnc1 [Compound 17b]
Out: 8%

In: Next record, please: COc1cc2c(cc1OC)N(C)C(=O)CN=C2c1cccc(-c2ccc(C(N)=O)cc2)c1
Out: 58.7%

In: // next record COc1cc2c(cc1OC)N(C)C(=O)CN=C2c1cccc(C(N)=O)c1
Out: 16.2%

----------
Record form. Attribute: inhibition at 10 µM. Fill in for each entry.
target system: PDE2 (Bos taurus)
Construct: PDE2 was prepared from bovine endothelial cells by the same methods; endogenous in cells; host or cells: bovine endothelial cells
protocol text: Inhibition of PDE2, radioenzymatic phosphodiesterase assay
Type: biochemical, bovine
condition summary: read-out: PDE2 percentage inhibition at 10 μM
Remember to quote the unit after the number.

In: What inhibition at 10 µM value was documented for this molecule, COc1cc2c(cc1OC)N(CCc1ccccc1)C(=O)CN=C2c1cccc(C#N)c1 ?
Out: 5.6%

In: Now consider COc1ccc2c(c1)C(c1ccccc1)=NCC(=O)N2 [Compound 28e] .
Out: 8.8%

In: Now consider COc1cc2c(cc1OC)N(C)C(=O)C(C)N=C2c1cccc(C(F)(F)F)c1 (centres unmarked) and answer again.
Out: 41%

In: Please do the same for COc1cc2c(cc1OC)N(C)C(=O)C(C)N=C2c1cccc(C#N)c1 (centres unmarked) as well.
Out: 33.8%

In: Also, COc1cccc2c1C(c1cccc(C#N)c1)=NCC(=O)N2 [Compound 28b] please.
Out: 34.5%

----------
Exercise: for every item that follows, state its recorded inhibition at 10 µM.
target system: PDE2 (Bos taurus)
Construct: PDE2 was prepared from bovine endothelial cells by the same methods; endogenous in cells; host or cells: bovine endothelial cells
protocol text: Inhibition of PDE2, radioenzymatic phosphodiesterase assay
Type: biochemical, bovine
condition summary: read-out: PDE2 percentage inhibition at 10 μM
Provide only the numeric value, understood in %.

In: What inhibition at 10 µM value was documented for this compound, CCCC1N=C(c2cccc(CO)c2)c2cc(OC)c(OC)cc2N(C)C1=O (stereo not shown) [Compound 17h] ?
Out: 9.2

In: Would you kindly repeat that for COc1cc2c(cc1OC)N(C)C(=O)CN=C2c1cccc(N)c1 [Compound 17i] ?
Out: 40

In: Same read-out for COc1cc2c(cc1OC)N(C)C(=O)CN=C2c1cccc(-c2ccc(C(N)=O)cc2)c1 [Compound 6n] ?
Out: 84.6

In: What do you have for CCOC(=O)CN1C(=O)CN=C(c2cccc(C(N)=O)c2)c2cc(OC)c(OC)cc21 [Compound 5i] ?
Out: 0

----------
target system: PDE2 (Bos taurus)
Construct: PDE2 was prepared from bovine endothelial cells by the same methods; endogenous in cells; host or cells: bovine endothelial cells
Sequence (P14099 1-921): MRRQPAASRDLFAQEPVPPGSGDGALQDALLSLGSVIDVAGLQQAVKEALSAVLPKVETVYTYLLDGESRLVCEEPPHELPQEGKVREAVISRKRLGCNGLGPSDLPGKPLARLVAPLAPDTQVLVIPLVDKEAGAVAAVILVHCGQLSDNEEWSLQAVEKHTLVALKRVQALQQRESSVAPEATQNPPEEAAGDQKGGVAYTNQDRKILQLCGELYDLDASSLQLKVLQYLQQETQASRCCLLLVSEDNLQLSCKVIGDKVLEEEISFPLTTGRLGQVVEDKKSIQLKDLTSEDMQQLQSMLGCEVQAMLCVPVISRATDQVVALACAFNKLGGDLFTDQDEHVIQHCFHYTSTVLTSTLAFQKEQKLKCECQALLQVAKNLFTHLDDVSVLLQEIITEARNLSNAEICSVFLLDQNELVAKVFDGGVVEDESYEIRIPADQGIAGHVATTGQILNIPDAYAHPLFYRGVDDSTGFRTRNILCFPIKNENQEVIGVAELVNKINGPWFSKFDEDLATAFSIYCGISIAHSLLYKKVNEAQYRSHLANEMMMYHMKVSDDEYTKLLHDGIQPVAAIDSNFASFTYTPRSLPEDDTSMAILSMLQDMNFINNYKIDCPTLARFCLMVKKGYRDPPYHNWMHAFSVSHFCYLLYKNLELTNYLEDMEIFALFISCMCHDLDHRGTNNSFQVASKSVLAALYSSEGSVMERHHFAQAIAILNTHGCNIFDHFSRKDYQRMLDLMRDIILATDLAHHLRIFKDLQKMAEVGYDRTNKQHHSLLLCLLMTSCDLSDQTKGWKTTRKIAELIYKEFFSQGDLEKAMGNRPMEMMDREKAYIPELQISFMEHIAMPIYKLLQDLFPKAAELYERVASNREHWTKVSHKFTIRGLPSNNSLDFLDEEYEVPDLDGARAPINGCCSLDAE
protocol text: Inhibition of PDE2, radioenzymatic phosphodiesterase assay
Assay type: biochemical, bovine
condition summary: 10 μM test compound; PDE2 from bovine endothelial cells
Rule: PDE2 percentage inhibition at 10 μM of 20% or more gives satisfied; anything lower gives not satisfied.

In: Decide: PDE2 percentage inhibition at 10 μM of COc1cc2c(cc1OC)C(c1cccc(C(F)(F)F)c1)=NCC(=O)N2 >= 20%?
Out: satisfied

In: Also COc1ccc(CN2C(=O)CN=C(c3cccc(C#N)c3)c3cc(OC)c(OC)cc32)cc1 ?
Out: not satisfied

In: And COc1cc2c(cc1OC)N(Cc1ccc(Cl)c(Cl)c1)C(=O)CN=C2c1cccc(C#N)c1 ?
Out: satisfied

In: Please do the same for CNC1=Nc2cc(OC)c(OC)cc2C(c2cccc(C#N)c2)=NC1 [Compound 12a] as well.
Out: not satisfied

In: Further, for COc1cc2c(cc1OC)N(C)C(=O)CN=C2c1cccc(C(=O)N2CCN(Cc3ccccc3)CC2)c1 [Compound 36e] ?
Out: satisfied

----------
target system: PDE2 (Bos taurus)
Construct: PDE2 was prepared from bovine endothelial cells by the same methods; endogenous in cells; host or cells: bovine endothelial cells
protocol text: Inhibition of PDE2, radioenzymatic phosphodiesterase assay
Type: biochemical, bovine
readout type: IC50
The reply must contain the numeric value and, after it, the unit.

In: Dear colleague, I am looking for the recorded IC50 of the following compound: COc1cc2c(cc1OC)N(C)C(=O)CN=C2c1cccc(CCCCCC(N)=O)c1
Out: 5.6 µM

In: Param item: COc1cc2c(cc1OC)N(C)C(=O)CN=C2c1cccc(C(C)=O)c1 [Compound 17e]
Out: 6.7 µM

In: Try the compound COc1cc2c(cc1OC)N(C)C(=O)CN=C2c1cccc([N+](=O)[O-])c1 [Compound 17c]
Out: 6.1 µM

In: And the next one, COc1cc2c(cc1OC)N(C)C(=O)C(C)N=C2c1cccc(C(N)=O)c1 (stereo not drawn) ?
Out: 4.5 µM

In: For CCCCC#Cc1cccc(C2=NCC(=O)N(C)c3cc(OC)c(OC)cc32)c1 then?
Out: 1.06 µM

In: Also COc1cc2c(cc1OC)N(C)C(=O)CN=C2c1ccc2c(c1)OCO2 [Compound 17o] , if possible.
Out: 7.8 µM

In: Also COc1ccc2c(c1)N(C)C(=O)CN=C2c1cccc(C(N)=O)c1 , if possible.
Out: 14 µM

In: Continue with COc1cc2c(cc1OC)N(C)C(=O)CN=C2c1cncc2ccccc12 [Compound 17f]
Out: 4.7 µM

In: COc1cc2c(c(Br)c1OC)C(c1cccc(C(N)=O)c1)=NCC(=O)N2C , same question.
Out: 2.1 µM

# credit: patent US20060128695A1
